Entries with their measured Ki, system MMP-9 (Homo sapiens, UniProt P14780):

compound: CC#CCOc1ccc(S(=O)(=O)N2C[C@H](OC)[C@H](O)[C@@H](O)[C@@H]2C(=O)NO)cc1
assay-target: MMP-9 (Homo sapiens, UniProt P14780)
Sequence (P14780 107-444 limits assumed): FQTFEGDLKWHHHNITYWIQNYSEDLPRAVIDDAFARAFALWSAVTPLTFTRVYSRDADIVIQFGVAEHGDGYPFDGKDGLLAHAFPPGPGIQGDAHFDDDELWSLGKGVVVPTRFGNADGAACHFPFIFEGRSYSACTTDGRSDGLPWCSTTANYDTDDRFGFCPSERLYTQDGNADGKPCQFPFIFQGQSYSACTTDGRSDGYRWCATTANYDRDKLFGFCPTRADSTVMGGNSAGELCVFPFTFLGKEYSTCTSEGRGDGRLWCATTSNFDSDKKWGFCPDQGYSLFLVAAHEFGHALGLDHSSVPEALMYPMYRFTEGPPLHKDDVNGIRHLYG
Ki: > 0.79 µM
--
compound: CC#CCOc1ccc(S(=O)(=O)N2C[C@H](O)[C@H](O)[C@@H](OC)[C@@H]2C(=O)NO)cc1
assay-target: MMP-9 (Homo sapiens, UniProt P14780)
Ki: > 0.79 µM
--
compound: CC#CCOc1ccc(S(=O)(=O)N2C[C@H](O)[C@H](O)[C@@H](OCC)[C@@H]2C(=O)NO)cc1 [Compound (e)]
assay-target: MMP-9 (Homo sapiens, UniProt P14780)
Ki: > 0.79 µM

Now look at this entry.
Query: For CC#CCOc1ccc(S(=O)(=O)N2C[C@H](O)[C@H](O)[C@@H](OCc3ccccc3)[C@@H]2C(=O)NO)cc1 , what is its reported Ki?
Result: > 0.79 µM

----------
Parameter Ki, tested on TNF-α converting enzyme (TACE) (Homo sapiens), listed per item.
Sequence (P78536 223-474 limits assumed): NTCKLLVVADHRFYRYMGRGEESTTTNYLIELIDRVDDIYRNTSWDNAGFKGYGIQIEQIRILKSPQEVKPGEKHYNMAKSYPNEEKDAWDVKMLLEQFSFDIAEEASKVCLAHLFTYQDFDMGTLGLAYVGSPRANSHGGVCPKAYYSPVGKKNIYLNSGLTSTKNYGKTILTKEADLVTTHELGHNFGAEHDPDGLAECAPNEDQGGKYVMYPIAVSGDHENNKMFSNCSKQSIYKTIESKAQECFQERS
Give bare numbers, in nM.

Lab note: each molecule below needs its Ki filled in.
1. CC#CCOc1ccc(S(=O)(=O)N2C[C@H](O)[C@H](O)[C@@H](OCc3ccccc3)[C@@H]2C(=O)NO)cc1 [Compound (b)]
2. CO[C@@H]1[C@@H](O)[C@@H](O)CN(S(=O)(=O)c2ccc(OCC#CCO)cc2)[C@H]1C(=O)NO [Compound (f)]

Result:
1: 9.4; 2: 18

Query: Dear colleague, I am looking for the recorded Ki of the following molecule: CC#CCOc1ccc(S(=O)(=O)N2C[C@H](O)[C@H](O)[C@@H](OCC)[C@@H]2C(=O)NO)cc1 [Compound (e)]
Result: 8.5
